- assay system: UniProt:A0ACD6BAR9
Simple rule here: Kd less than 500 nM is Y, otherwise N.

These recorded examples may help you get a feel for the data.
{"smiles notation": "CCCCCCCCCCCC", "assigned class": "Y"}
{"smiles notation": "CCCCCCCCCC(=O)O", "assigned class": "Y"}
{"smiles notation": "CCCCCCCCCCCCCC(=O)O", "assigned class": "N"}

Attention now shifts to the item below.
Lookup: Field: below-cutoff. Rule: recorded Kd strictly less than 500 nM. Subject: CCCCCCCCCC
Found: N

* * *

- assay system: CYP153D17 (Sphingomonas sp. PAMC 26605, UniProt A0ACD6BAR9)
- Sequence (A0ACD6BAR9 1-407): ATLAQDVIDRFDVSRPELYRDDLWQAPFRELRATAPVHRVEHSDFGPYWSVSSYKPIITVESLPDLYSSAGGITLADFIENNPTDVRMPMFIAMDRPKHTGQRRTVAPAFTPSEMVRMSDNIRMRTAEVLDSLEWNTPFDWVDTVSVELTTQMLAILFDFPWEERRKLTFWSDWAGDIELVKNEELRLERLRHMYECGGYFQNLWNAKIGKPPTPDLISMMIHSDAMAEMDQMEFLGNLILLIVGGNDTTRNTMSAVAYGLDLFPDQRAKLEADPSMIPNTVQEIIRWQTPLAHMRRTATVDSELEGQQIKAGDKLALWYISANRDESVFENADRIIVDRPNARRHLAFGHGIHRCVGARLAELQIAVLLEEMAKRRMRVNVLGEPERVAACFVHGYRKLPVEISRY
- assay method text: UV-Vis spectral binding titration (substrate binding assay) of purified CYP153D17
- stated conditions: shift in heme spin state from low-spin (Soret maximum at 420 nm) to high-spin (390 nm); 1 μM CYP153D17
observable: Spin Shift (%)

Some solved entries appear below for comparison.
{"compound": "CCCCCCCCCC [Decane, decane]", "Spin Shift (%)": "≥80%"}
{"compound": "CCCCCCCCCC(=O)O [Capric acid, capric acid]", "Spin Shift (%)": "≥90%"}
{"compound": "CCCCCCCCCCCC(=O)O [Lauric acid, lauric acid]", "Spin Shift (%)": "≥90%"}

Lookup: Entry under review: CCCCCCCCCCCCCC(=O)O [Myristic acid, myristic acid] . Reported Spin Shift (%)?
Found: ≥80%
